System: AsPC-1 (G12D)
Test Details: In vitro cell proliferation inhibition test (CellTiter-Glo Luminescent Cell Viability Assay)
Type: cell-based
Condition Info: AsPC-1 cell line, Pancreas, KRAS (p.G12D); cells and compounds co-incubated 72 hours; listed as 17'

Compound: CCn1c(-c2cc(C#Cc3cccnc3)cnc2C(C)OC)c2c3cc(ccc31)-c1csc(n1)CC(NC(=O)C1CC1C)C(=O)N1CCCC(N1)C(=O)OCC(C)(C)C2 (stereo not shown)
Unit Of Measure: nM
IC50: 700

----------
System: AsPC-1 (G12D)
Test Details: In vitro cell proliferation inhibition test (CellTiter-Glo Luminescent Cell Viability Assay)
Type: cell-based
Condition Info: AsPC-1 cell line, Pancreas, KRAS (p.G12D); cells and compounds co-incubated 72 hours; listed as 7'
Experimental Endpoint: IC50 (nM)

Substance Smiles: CCn1c(-c2cc(C#C[C@@H]3COCCN3C)cnc2[C@H](C)OC)c2c3cc(ccc31)-c1csc(n1)C[C@H](NC(=O)[C@H]1C[C@@H]1C)C(=O)N1CCC[C@H](N1)C(=O)OCC(C)(C)C2
Unit Of Measure: nM
Reported: 2640
